# reported IC50; entries follow
Tested on: NCI-H1975
Assay: Cytotoxicity against human NCI-H1975 cells assessed as cell growth inhibition by MTT assay
Format: functional, cell-based
Returns: string containing the numeric result and its unit.

See these solved cases before continuing.
1) CN1C(=O)[C@]23SSS[C@]1(C)C(=O)N2[C@@H]1Nc2ccccc2C1(C12c4ccccc4N[C@@H]1N1C(=O)[C@@]4(CO)SSS[C@]1(C(=O)N4C)[C@H]2O)[C@@H]3O (stereo partly drawn): 200 nM
2) CN1C(=O)[C@]23SSS[C@]1(CO)C(=O)N2[C@H]1Nc2ccccc2C1(C12c4ccccc4N[C@H]1N1C(=O)[C@@]4(CO)SSSS[C@]1(C(=O)N4C)[C@H]2O)[C@@H]3O (stereo partly drawn): 3600 nM

Name the reported IC50 value associated with the compound CN1C(=O)[C@]23SSS[C@]1(CO)C(=O)N2[C@H]1Nc2ccccc2C1(C12c4ccccc4N[C@H]1N1C(=O)[C@@]4(CO)SSS[C@]1(C(=O)N4C)[C@H]2O)[C@@H]3O (stereo partly drawn)
800 nM

---

Tested on: HL-60
Test: Cytotoxicity against human HL-60 cells assessed as reduction in cell viability
Assay type: functional, cell-based
outcomeMeasure: pIC50
Expect pIC50 as a plain number equal to -log10 of the molar concentration.

Name the reported pIC50 value associated with the molecule COc1ccc2c(c1)N[C@@]1(C2=O)[C@H](C=C(C)C)N2C(=O)[C@]3(O)CCCN3C(=O)[C@]2(O)[C@H]1O
5.22

---

Tested on: L5178Y
Test: Cytotoxicity against mouse L5178Y cells assessed as reduction in cell growth by MTT assay
Type: functional, cell-based
outcomeMeasure: pIC50
Expect pIC50 as a plain number equal to -log10 of the molar concentration.

# returns recorded pIC50 (system: L5178Y) for C[C@]12NC(=O)[C@@H](Cc3c1[nH]c1ccccc31)n1c2nc2ccccc2c1=O
5.44

---

System: HeLa
Test: Cytotoxicity against human HeLa cells assessed as reduction in cell growth measured after 72 hrs by MTT assay
Assay type: functional, cell-based
outcomeMeasure: IC50 (µM)
Your answer should be a plain number; it is taken to be in µM.

Name the reported IC50 value associated with the molecule CC(C)[C@H]1C(=O)N2[C@@H]3N4c5ccccc5[C@]3(C[C@@H]3[C@@]5(C)CCCC(C)(C)[C@@H]5CC[C@]34C)C[C@H]2C(=O)N1C
16.7

---

# reported IC50 at 72 h; entries follow
Test: Cytotoxicity against human Huh7.5 cells assessed as reduction in cell viability incubated for 72 hrs by CCK-8 assay
Format: toxicity, cell-based, Huh-7.5

Name the reported IC50 at 72 h value associated with the compound CO[C@@H]1CC(=O)[C@@H]2C[C@@]34SS[C@]5(C[C@H]6C(=O)CC(=O)[C@H](O)[C@H]6N5C3=O)C(=O)N4[C@@H]2[C@H]1O
9.52 µM

Name the reported IC50 at 72 h value associated with the compound CO[C@H]1CC(=O)[C@@H]2C[C@@]34SS[C@]5(C[C@H]6C(=O)C[C@H](OC)[C@H](O)[C@H]6N5C3=O)C(=O)N4[C@@H]2[C@H]1O
4.88 µM

---

Tested on: HEK293
Assay: Cytotoxicity against HEK293 cells assessed as cell growth inhibition
Format: functional, cell-based
Conditions: Homo sapiens
outcomeMeasure: pIC50
Expect pIC50 as a plain number equal to -log10 of the molar concentration.

1) CC(=O)O[C@H]1C=CC=C2C[C@]34SS[C@](CO)(C(=O)N3[C@@H]21)N(C)C4=O: 5.35

Name the reported pIC50 value associated with the molecule CN1C(=O)[C@]23CC4=CC=C[C@H](O)[C@H]4N2C(=O)[C@@]1(CO)SS3
5.80

Name the reported pIC50 value associated with the molecule CN1C(=O)[C@]2(S)CC3=CC=C[C@H](O)[C@H]3N2C(=O)[C@]1(S)CO
5.90

Name the reported pIC50 value associated with the molecule C=c1c(=O)n2c(cc3ccccc32)c(=O)n1C
4.52

---

Tested on: P388
Experiment: Cytotoxicity against mouse P388 cells
Assay type: functional
Settings: read-out: ED50 (the source's name)
EC50 under 0.2 µg/mL gets class 1, anything at or over 0.2 µg/mL gets class 0.

The examples below pair each entry with its known result.
1) CSS[C@]1(C(C)C)C(=O)N2C(=CC3(C45c6ccccc6N[C@H]4N4C(=O)[C@H](CO)N(C)C(=O)[C@@]4(O)[C@H]5O)c4ccccc4N[C@H]23)C(=O)N1C (stereo not given in full): class 1
2) CC(C)[C@]12SSS[C@]3(C(=O)N1C)[C@@H](O)C1(C45c6ccccc6N[C@H]4N4C(=O)[C@@]6(C(C)C)SS[C@]4(C(=O)N6C)[C@H]5O)c4ccccc4N[C@@H]1N3C2=O (stereo not given in full): class 1

Dear reviewer, please state whether CO[C@@]12C(=O)N(C)[C@@H](CO)C(=O)N1[C@@H]1Nc3ccccc3C1(C13c4ccccc4N[C@@H]1N1C(=O)[C@@]4(C(C)C)SS[C@]1(C(=O)N4C)[C@@H]3O)[C@H]2O (stereo not given in full) has EC50 strictly beneath 0.2 µg/mL.
class 1

Dear reviewer, please state whether CO[C@@]12C(=O)N(C)[C@@H](CO)C(=O)N1[C@@H]1Nc3ccccc3C1(C13c4ccccc4N[C@@H]1N1C(=O)[C@@]4(C(C)C)SSSS[C@]1(C(=O)N4C)[C@H]3O)[C@@H]2O (stereo not given in full) has EC50 strictly beneath 0.2 µg/mL.
class 0

Dear reviewer, please state whether CC(C)[C@]12SS[C@]3(C(=O)N1C)[C@@H](O)C1(C45c6ccccc6N[C@H]4N4C(=O)[C@@]6(C(C)C)SS[C@]4(C(=O)N6C)[C@H]5O)c4ccccc4N[C@@H]1N3C2=O (stereo not given in full) has EC50 strictly beneath 0.2 µg/mL.
class 1

Dear reviewer, please state whether CS[C@]1(C(C)C)C(=O)N2C(=CC3(C45c6ccccc6N[C@H]4N4C(=O)[C@H](CO)N(C)C(=O)[C@@]4(O)[C@H]5O)c4ccccc4N[C@H]23)C(=O)N1C (stereo not given in full) has EC50 strictly beneath 0.2 µg/mL.
class 0

Dear reviewer, please state whether CO[C@@]12C(=O)N(C)[C@@H](C(C)C)C(=O)N1[C@@H]1Nc3ccccc3C1(C13c4ccccc4N[C@@H]1N1C(=O)[C@@]4(C(C)C)SSS[C@]1(C(=O)N4C)[C@@H]3O)[C@H]2O (stereo not given in full) has EC50 strictly beneath 0.2 µg/mL.
class 1

Dear reviewer, please state whether CC(C)[C@]12SSS[C@]3(C(=O)N1C)[C@@H](O)C1(C45c6ccccc6N[C@H]4N4C(=O)[C@@]6(CO)SSSS[C@]4(C(=O)N6C)[C@H]5O)c4ccccc4N[C@@H]1N3C2=O (stereo not given in full) has EC50 strictly beneath 0.2 µg/mL.
class 1

Dear reviewer, please state whether CO[C@@]12C(=O)N(C)[C@@H](CO)C(=O)N1[C@@H]1Nc3ccccc3C1(C13c4ccccc4N[C@@H]1N1C(=O)[C@@]4(C(C)C)SS[C@]1(C(=O)N4C)[C@H]3O)[C@@H]2O (stereo not given in full) has EC50 strictly beneath 0.2 µg/mL.
class 0

Dear reviewer, please state whether CC(C)[C@]12SSS[C@]3(C(=O)N1C)[C@@H](O)C1(C45c6ccccc6N[C@H]4N4C(=O)[C@@]6(CO)SSS[C@]4(C(=O)N6C)[C@H]5O)c4ccccc4N[C@@H]1N3C2=O (stereo not given in full) has EC50 strictly beneath 0.2 µg/mL.
class 1

---

Tested on: HCT-116
Assay: Antiproliferative activity against human HCT-116 cells assessed as reduction in cell viability incubated for 24 hrs by MTT assay
Assay type: functional, cell-based
Settings: HCT-116, 24 h
outcomeMeasure: IC50 (nM)
Your answer should be a plain number; it is taken to be in nM.

1) COC1=C(C)C(=O)C2=C(C1=O)[C@H]1[C@@H]3CC4=C(C(=O)C(OC)=C(C)C4=O)[C@H](COC(C)=O)N3[C@@H](O)[C@@H](C2)N1C: 0.57
2) COC1=C(C)C(=O)C2=C(C1=O)[C@@H]1[C@@H]3CC4=C(C(=O)C(OC)=C(C)C4=O)[C@H](CO)N3[C@@H](C#N)[C@H](C2)N1C: 13
3) COC1=C(C)C(=O)C2=C(C1=O)[C@H](CO)N1[C@@H](C#N)[C@@H]3[C@@H](O)c4c(O)c(C)c(OC)c(O)c4[C@H]([C@@H]1C2)N3C: 455

Now turn to the next molecule.
Name the reported IC50 value associated with the molecule COc1cc2c(cc1O)CCNC21CS[C@@H]2c3c(OC(C)=O)c(C)c4c(c3[C@H](COC1=O)N1[C@@H]2[C@H]2c3c(cc(C)c(OC)c3O)C[C@@H]([C@@H]1C#N)N2C)OCO4 (some centres undefined)
0.4

---

Test system: SF-268
Assay: Cytotoxicity against human SF-268 cells assessed as reduction in cell viability incubated for 72 hrs by SRB assay
Assay type: functional, cell-based
Conditions: SF-268, 72 h
outcomeMeasure: pIC50
Expect pIC50 as a plain number equal to -log10 of the molar concentration.

1) C=CC(C)(C)c1[nH]c2ccccc2c1/C=C1\NC(=O)[C@@]2(CC[C@]3(O)c4cc(C)cc(O)c4C(=O)c4c(O)cc(OC)c2c43)NC1=O: 4.52

Now turn to the next molecule.
Name the reported pIC50 value associated with the molecule C=CC(C)(C)c1[nH]c2ccccc2c1/C=C1\NC(=O)[C@@]2(CC[C@@]3(O)c4cc(OC)cc(O)c4C(=O)c4c(O)cc(C)c2c43)NC1=O
4.90
